# Test system: SR leukemia
# Assay Comment: NCI tumour cell line growth inhibition, 48 h; in the data active = GI50 below about 0.43 µM; inactive = the rest
Outcome field: choose from Y = active, N = inactive

Any idea what this test logged for CCN(Cc1c(F)cccc1Cl)c1ccc(CO)c(Cl)c1 ?
N

Any idea what this test logged for N#Cc1cccc(C2C3=C(COC3=O)N(CCO)c3cc4c(cc32)OCO4)c1 (configuration not stated) ?
Y

Any idea what this test logged for C[N+](C)=c1ccc2nc3c(cc(NCCCNc4cc5oc6cc(=[N+](C)C)ccc-6nc5c5ccccc45)c4ccccc43)oc-2c1 ?
N

Any idea what this test logged for O=C1c2cc3c(cc2-c2c1c1ccc(Cl)cc1c(=O)n2CCCn1ccnc1)OCO3 ?
Y

Any idea what this test logged for COc1cc(NCCCCCN=C(N)NC(N)=NC(C)C)c2ncccc2c1 ?
N

Any idea what this test logged for O=C(Nc1cccc(C(F)(F)F)c1)Oc1ccc(Cl)c2cccnc12 ?
N

Any idea what this test logged for COc1c(N2CCN(CN3C(=O)C(=Nc4ccc(S(=O)(=O)Nc5ncccn5)cc4)c4cc(Cl)ccc43)C(C)C2)c(F)cc2c(=O)c(C(=O)O)cn(C3CC3)c12 (configuration not stated) ?
N
